Test system: PnyAgo WT (Pedobacter nyackensis)
protocol.details: filter binding
protocol.conditions: 5 mM Mg2+; 5'-phosphate; 10 mM Tris-HCl pH 7.9, 100 mM NaCl, 5 mM MgCl2 (or none), 5% glycerol, 100 ug/ml BSA, 37 C

| chain | limit.qualifier | Kd / nM |
| --- | --- | --- |
| GUUAGACUUUAAGUCAAU [guide RNA (G-guide-RNA)] | > | 1000 |
| GTTAGACTTTAAGTCAAT [5'-P guide DNA (G-guide)] | = | 31 |

---

Test system: PnyAgo WT (Pedobacter nyackensis)
protocol.details: filter binding
protocol.conditions: no Mg2+; 5'-phosphate; 10 mM Tris-HCl pH 7.9, 100 mM NaCl, 5 mM MgCl2 (or none), 5% glycerol, 100 ug/ml BSA, 37 C
pKd: −log10 of the molar value.
readout: pKd

| chain | readout | recorded.result |
| --- | --- | --- |
| GTTAGACTTTAAGTCAAT [5'-P guide DNA (G-guide)] | pKd | 6.41 |

The reported numbers originate from paper PMC9360449.
